# Assay info: RAD001 PK analysis in tumor bearing mice
# Type: in vivo, NSG mice
# Reported conditions: NSG, mouse, whole blood, oral; 24 hours after dosing, 0.3 mg/kg, day 0 and day 14; read-out: RAD001 concentrations in the blood
Endpoint: concentration at 24 h

Ask: I have this compound here, CO[C@H]1C[C@@H]2CC[C@@H](C)[C@@](O)(O2)C(=O)C(=O)N2CCCC[C@H]2C(=O)O[C@H]([C@H](C)C[C@@H]2CC[C@@H](OCCO)[C@H](OC)C2)CC(=O)[C@H](C)/C=C(\C)[C@@H](O)[C@@H](OC)C(=O)[C@H](C)C[C@H](C)/C=C/C=C/C=C/1C , and I need its recorded concentration at 24 h.
Result: > 10 nM
